Experiment: refractive index (Na D-line) (dimensionless)
Details: 333.15 K; 101 kPa; Liquid; Standard Abbe refractometry
Listed compounds paired with reported refractive index
When you answer, write just the number.

Guide cases for refractive index, answers given:
compound	refractive index
CCn1cc[n+](C)c1.NCCS(=O)(=O)[O-] [1-ethyl-3-methylimidazolium taurinate]	1.5027
CCn1cc[n+](C)c1.N#C[C-](C#N)C#N [1-ethyl-3-methyl-1H-imidazolium tricyanomethanide]	1.50087
CCn1cc[n+](C)c1.NCC(=O)[O-] [1-ethyl-3-methylimidazolium ammonioacetate]	1.51041
CC[n+]1ccn(C)c1.N[C@@H](CO)C(=O)[O-] [3-ethyl-1-methyl-1H-imidazolium L-serinate]	1.5162
CCn1cc[n+](C)c1.C[C@H](N)C(=O)[O-] [1-ethyl-3-methylimidazolium L-alaninate]	1.50217

The reported refractive index of the compound CCn1cc[n+](C)c1.O=C([O-])[C@@H]1CCCN1 [1-ethyl-3-methyl-1H-imidazolium L-prolinate] was 1.51177

----------
Settings: 338.15 K; 101 kPa; Liquid; Stabinger Viscometer
readout.label: viscosity (mPa·s)
The reply should be a number in mPa·s, with the unit left off.

Guide cases for viscosity, answers given:
molecule	viscosity [mPa·s]
CCn1cc[n+](C)c1.O=C([O-])[C@@H]1CCCN1 [1-ethyl-3-methyl-1H-imidazolium L-prolinate]	85.12
CCn1cc[n+](C)c1.C[C@H](N)C(=O)[O-] [1-ethyl-3-methylimidazolium L-alaninate]	33.22
CCn1cc[n+](C)c1.NCCS(=O)(=O)[O-] [1-ethyl-3-methylimidazolium taurinate]	56.05

From here, focus on the item given below.
The reported viscosity of the molecule CC[n+]1ccn(C)c1.N[C@@H](CO)C(=O)[O-] [3-ethyl-1-methyl-1H-imidazolium L-serinate] was 119.86

----------
Conditions: 318.15 K; 101.33 kPa; Liquid; Vibrating tube method
readout.label: mass density (kg/m3)
The reply should be a number in kg/m3, with the unit left off.

Guide cases for mass density, answers given:
compound	measurement
CCn1cc[n+](C)c1.NCCS(=O)(=O)[O-] [1-ethyl-3-methylimidazolium taurinate]	1238.6
CCn1cc[n+](C)c1.O=C([O-])[C@@H]1CCCN1 [1-ethyl-3-methyl-1H-imidazolium L-prolinate]	1130.1
CC[n+]1ccn(C)c1.N[C@@H](CO)C(=O)[O-] [3-ethyl-1-methyl-1H-imidazolium L-serinate]	1190.9

The reported mass density of the compound CCn1cc[n+](C)c1.NCC(=O)[O-] [1-ethyl-3-methylimidazolium ammonioacetate] was 1149

The reported mass density of the compound CCn1cc[n+](C)c1.C[C@H](N)C(=O)[O-] [1-ethyl-3-methylimidazolium L-alaninate] was 1110.5

----------
Listed compounds paired with reported viscosity
Conditions: 353.15 K; 101 kPa; Liquid; Stabinger Viscometer
The reply should be a number in mPa·s, with the unit left off.

compound	units.label	measurement
CCn1cc[n+](C)c1.NCCS(=O)(=O)[O-] [1-ethyl-3-methylimidazolium taurinate]	mPa·s	32.53
CC[n+]1ccn(C)c1.N[C@@H](CO)C(=O)[O-] [3-ethyl-1-methyl-1H-imidazolium L-serinate]	mPa·s	59.91
CCn1cc[n+](C)c1.O=C([O-])[C@@H]1CCCN1 [1-ethyl-3-methyl-1H-imidazolium L-prolinate]	mPa·s	44.89

From here, focus on the item given below.
The reported viscosity of the compound CCn1cc[n+](C)c1.C[C@H](N)C(=O)[O-] [1-ethyl-3-methylimidazolium L-alaninate] was 20.03

----------
Details: 348.15 K; 101 kPa; Liquid; Stabinger Viscometer
Listed compounds paired with reported viscosity
The reply should be a number in mPa·s, with the unit left off.

compound	units.label	measurement
CC[n+]1ccn(C)c1.N[C@@H](CO)C(=O)[O-] [3-ethyl-1-methyl-1H-imidazolium L-serinate]	mPa·s	74.03
CCn1cc[n+](C)c1.O=C([O-])[C@@H]1CCCN1 [1-ethyl-3-methyl-1H-imidazolium L-prolinate]	mPa·s	54.73
CCn1cc[n+](C)c1.C[C@H](N)C(=O)[O-] [1-ethyl-3-methylimidazolium L-alaninate]	mPa·s	23.38

From here, focus on the item given below.
The reported viscosity of the compound CCn1cc[n+](C)c1.NCCS(=O)(=O)[O-] [1-ethyl-3-methylimidazolium taurinate] was 38.4

----------
Listed molecules paired with reported viscosity
Conditions: 313.15 K; 101 kPa; Liquid; Stabinger Viscometer
± gives the expanded uncertainty stated by the source.
Could you kindly put the unit after your number?

Guide cases for viscosity, answers given:
molecule	measurement
CCn1cc[n+](C)c1.NCCS(=O)(=O)[O-] [1-ethyl-3-methylimidazolium taurinate]	190.44 ± 10 mPa·s
CCn1cc[n+](C)c1.O=C([O-])[C@@H]1CCCN1 [1-ethyl-3-methyl-1H-imidazolium L-prolinate]	359.21 ± 25 mPa·s
CC[n+]1ccn(C)c1.N[C@@H](CO)C(=O)[O-] [3-ethyl-1-methyl-1H-imidazolium L-serinate]	588.27 ± 51 mPa·s

The reported viscosity of the molecule CCn1cc[n+](C)c1.C[C@H](N)C(=O)[O-] [1-ethyl-3-methylimidazolium L-alaninate] was 103.54 ± 4.1 mPa·s

----------
Conditions: 303.15 K; 101 kPa; Liquid; Stabinger Viscometer
Listed compounds paired with reported viscosity
The reply should be a number in mPa·s, with the unit left off.

compound	readout.label	measurement
CCn1cc[n+](C)c1.NCCS(=O)(=O)[O-] [1-ethyl-3-methylimidazolium taurinate]	viscosity	359.36
CCn1cc[n+](C)c1.C[C@H](N)C(=O)[O-] [1-ethyl-3-methylimidazolium L-alaninate]	viscosity	187.79
CC[n+]1ccn(C)c1.N[C@@H](CO)C(=O)[O-] [3-ethyl-1-methyl-1H-imidazolium L-serinate]	viscosity	1376.2

From here, focus on the item given below.
The reported viscosity of the compound CCn1cc[n+](C)c1.O=C([O-])[C@@H]1CCCN1 [1-ethyl-3-methyl-1H-imidazolium L-prolinate] was 771.51

----------
Assay: refractive index (Na D-line) (dimensionless)
Settings: 323.15 K; 101 kPa; Liquid; Standard Abbe refractometry
readout.label: refractive index
When you answer, write just the number.

compound	refractive index
CCn1cc[n+](C)c1.NCCS(=O)(=O)[O-] [1-ethyl-3-methylimidazolium taurinate]	1.50543
CCn1cc[n+](C)c1.C[C@H](N)C(=O)[O-] [1-ethyl-3-methylimidazolium L-alaninate]	1.50505
CCn1cc[n+](C)c1.NCC(=O)[O-] [1-ethyl-3-methylimidazolium ammonioacetate]	1.51313
CCn1cc[n+](C)c1.N#C[C-](C#N)C#N [1-ethyl-3-methyl-1H-imidazolium tricyanomethanide]	1.50419
CCn1cc[n+](C)c1.O=C([O-])[C@@H]1CCCN1 [1-ethyl-3-methyl-1H-imidazolium L-prolinate]	1.51454

The reported refractive index of the compound CC[n+]1ccn(C)c1.N[C@@H](CO)C(=O)[O-] [3-ethyl-1-methyl-1H-imidazolium L-serinate] was 1.51887

----------
Listed compounds paired with reported mass density
Conditions: 338.15 K; 101.33 kPa; Liquid; Vibrating tube method
± gives the expanded uncertainty stated by the source.
Could you kindly put the unit after your number?

compound	mass density
CC[n+]1ccn(C)c1.N[C@@H](CO)C(=O)[O-] [3-ethyl-1-methyl-1H-imidazolium L-serinate]	1178.7 ± 14 kg/m3
CCn1cc[n+](C)c1.C[C@H](N)C(=O)[O-] [1-ethyl-3-methylimidazolium L-alaninate]	1098.3 ± 12 kg/m3
CCn1cc[n+](C)c1.NCC(=O)[O-] [1-ethyl-3-methylimidazolium ammonioacetate]	1136.9 ± 10 kg/m3
CCn1cc[n+](C)c1.NCCS(=O)(=O)[O-] [1-ethyl-3-methylimidazolium taurinate]	1226.1 ± 14 kg/m3

The reported mass density of the compound CCn1cc[n+](C)c1.O=C([O-])[C@@H]1CCCN1 [1-ethyl-3-methyl-1H-imidazolium L-prolinate] was 1118 ± 7.1 kg/m3
